Data origin, for the record: the RepoRT retention time repository (doi:10.1021/acs.analchem.2c02893)

procedure text: RP, Thermo Scientific Acclaim RSLC 120 C18, 100 × 2.1 mm, 2.2 µm, 30 °C, 0.2 mL/min, estimated dead time 1.1 min; A: 90% water + 10% methanol + 0.01% formic acid + 5 mM ammonium formate, pH 3.61; B: methanol + 0.01% formic acid + 5 mM ammonium formate, pH 3.61; gradient (min/%B) 0/1 1/1 2/39 13/99.9 15/99.9 15.1/1 20.1/1
settings: stereoisomer not certain
Label key: y means LC retention time under 8 min; n means LC retention time of 8 min or more.

Solved cases (5 shown):
Cc1nc(C)c(Cl)c(NS(=O)(=O)c2ccc(N)cc2)n1 [Sulfaclomide]    y
O=C1CC2(CCCCC2)CN1    y
N#CSCSc1nc2ccccc2s1    n
CCOP(=S)(OCC)Oc1nc(Cl)c(Cl)cc1Cl    n
CC(=O)Nc1ccc(O)cc1    y

Prompt line: Please check: LC retention time for NC(Cc1ccc(N(CCCl)CCCl)cc1)C(=O)O (stereo not given) , strictly under 8 min or not?
Response line: y

Prompt line: Please check: LC retention time for CC(C)(C)NCC(O)c1ccccc1Cl (stereo not given) , strictly under 8 min or not?
Response line: y

Prompt line: Please check: LC retention time for `CCc1cc2c(s1)N(C)C(=O)CN=C2c1ccccc1Cl` , strictly under 8 min or not?
Response line: n

Prompt line: Please check: LC retention time for CN(CC1(C)CCCO1)S(=O)(=O)c1ccc(Cl)c(S(N)(=O)=O)c1 (stereo not given) [Mefruside] , strictly under 8 min or not?
Response line: y

----------
procedure text: RP, Thermo Scientific Acclaim RSLC 120 C18, 100 × 2.1 mm, 2.2 µm, 30 °C, 0.2 mL/min, estimated dead time 1.1 min; A: 90% water + 10% methanol + 0.01% formic acid + 5 mM ammonium formate, pH 3.61; B: methanol + 0.01% formic acid + 5 mM ammonium formate, pH 3.61; gradient (min/%B) 0/1 1/1 2/39 13/99.9 15/99.9 15.1/1 20.1/1
settings: stereoisomer not certain
attribute measured: LC retention time (min)
# number only, unit min dropped from output

Example results:
CC(=O)OC1(C(C)=O)CCC2C3CC(C)C4=CC(=O)CCC4(C)C3CCC21C (stereo not drawn) [Medroxyprogesteroneacetate]    11
c1ccc2sc(N3CCOCC3)nc2c1    8.5
COc1ccccc1Oc1c(NS(=O)(=O)c2ccc(C(C)(C)C)cc2)nc(-c2ncccn2)nc1OCCO    9.96
CC(C)NCC(O)COc1ccc(CC(N)=O)cc1 (stereo not drawn)    3.09
CNC(C)Cc1ccccc1OC (stereo not drawn)    4.69
CCc1nn(C)c(C(=O)NCc2ccc(C(C)(C)C)cc2)c1Cl    12.2

Prompt line: So what does the record say about LC retention time for COC1C=COC2(C)Oc3c(C)c(O)c4c(O)c(c5c(nc6cc(C)ccn65)c4c3C2=O)NC(=O)C(C)=CC=CC(C)C(O)C(C)C(O)C(C)C(OC(C)=O)C1C (stereo not drawn) ?
Response line: 10.1

Prompt line: So what does the record say about LC retention time for CCC(C(N)=O)N1CCCC1=O (stereo not drawn) ?
Response line: 3.74

Prompt line: So what does the record say about LC retention time for COC(=O)C(NC(=O)c1nn(CCCCCF)c2ccccc12)C(C)(C)C (stereo not drawn) ?
Response line: 11

Prompt line: So what does the record say about LC retention time for CC(=O)OC1CCC2C3CCC4CC(=O)C=C(C)C4(C)C3CCC12C (stereo not drawn) [Metenolone acetate] ?
Response line: 12.5

Prompt line: So what does the record say about LC retention time for CCCC(Cc1ccccc1)N1CCCC1 (stereo not drawn) ?
Response line: 5.56

Prompt line: So what does the record say about LC retention time for CC(Oc1ccc(Oc2cnc3cc(Cl)ccc3n2)cc1)C(=O)O (stereo not drawn) ?
Response line: 9.62

Prompt line: So what does the record say about LC retention time for `COP(=S)(OC)Oc1ccc(Sc2ccc(OP(=S)(OC)OC)cc2)cc1` ?
Response line: 12.4

Prompt line: So what does the record say about LC retention time for `CN(C)CCCN1c2ccccc2CCc2ccc(Cl)cc21` ?
Response line: 9.21

Prompt line: So what does the record say about LC retention time for CC(C(=O)c1ccc2c(c1)OCO2)N(C)C (stereo not drawn) ?
Response line: 3.78

Prompt line: So what does the record say about LC retention time for C[N+]1(C)C2CC(OC(=O)C(CO)c3ccccc3)CC1C1OC12 (stereo not drawn) ?
Response line: 3.88

Prompt line: So what does the record say about LC retention time for CC(=O)OC1C=CC2C3Cc4ccc(O)c5c4C2(CCN3C)C1O5 (stereo not drawn) ?
Response line: 3.75

Prompt line: So what does the record say about LC retention time for CS(=O)(=O)c1ccc(C(O)C(CF)NC(=O)C(Cl)Cl)cc1 (stereo not drawn) ?
Response line: 4.73

----------
procedure text: RP, Thermo Scientific Acclaim RSLC 120 C18, 100 × 2.1 mm, 2.2 µm, 30 °C, 0.2 mL/min, estimated dead time 1.1 min; A: 90% water + 10% methanol + 0.01% formic acid + 5 mM ammonium formate, pH 3.61; B: methanol + 0.01% formic acid + 5 mM ammonium formate, pH 3.61; gradient (min/%B) 0/1 1/1 2/39 13/99.9 15/99.9 15.1/1 20.1/1
settings: stereoisomer not certain
Label key: true (1) means LC retention time under 8 min; false (0) means LC retention time of 8 min or more.

Solved cases (5 shown):
COc1cccc(C(=O)NN(C(=O)c2cc(C)cc(C)c2)C(C)(C)C)c1C [Methoxyfenozide]    false (0)
O=C1Nc2ccc([N+](=O)[O-])cc2C(c2ccccc2F)=NC1O (centres undefined)    true (1)
COc1ccc(NC(=O)N(C)C)cc1Cl    true (1)
CC1(C)OCC2OC3(C(=O)O)OC(C)(C)OC3C2O1 (centres undefined)    true (1)
O=C(NC(=O)c1c(F)cccc1F)Nc1cc(Cl)c(Oc2ncc(C(F)(F)F)cc2Cl)c(Cl)c1    false (0)

Prompt line: Please check: LC retention time for CC(=O)Nc1ccc(OCC(O)CNC(C)C)cc1 (centres undefined) , strictly under 8 min or not?
Response line: true (1)

Prompt line: Please check: LC retention time for C#CC(C)N(C)C(=O)Nc1ccc(Cl)cc1 (centres undefined) , strictly under 8 min or not?
Response line: false (0)

----------
procedure text: RP, Thermo Scientific Acclaim RSLC 120 C18, 100 × 2.1 mm, 2.2 µm, 30 °C, 0.2 mL/min, estimated dead time 1.1 min; A: 90% water + 10% methanol + 0.01% formic acid + 5 mM ammonium formate, pH 3.61; B: methanol + 0.01% formic acid + 5 mM ammonium formate, pH 3.61; gradient (min/%B) 0/1 1/1 2/39 13/99.9 15/99.9 15.1/1 20.1/1
settings: stereoisomer not certain
Catalogue of LC retention time readings, one per entry.
Please report the result as a number followed by the unit.

Example results:
CCCCCn1cc(C(=O)c2cccc3ccccc23)c2ccc(O)cc21    11.2 min
C=C(C)C(N)=O [Methacrylamide]    2.81 min
COC(=O)C(Cc1ccccc1)NC(=O)C(N)CC(=O)O (centres undefined)    5.01 min
CNCCC(Oc1cccc2ccccc12)c1cccs1 (centres undefined)    8.11 min
COc1ccc2c3c1OC1C(O)C=CC4C(C2)N(C)CCC341 (centres undefined)    3.4 min
CC(NCCc1ccc(O)cc1)C(O)c1ccc(O)cc1 (centres undefined)    3.79 min

Prompt line: So what does the record say about LC retention time for CCC(C)C1OC2(C=CC1C)CC1CC(CC=C(C)C(OC3CC(OC)C(OC4CC(OC)C(O)C(C)O4)C(C)O3)C(C)C=CC=C3COC4C(O)C(C)=CC(C(=O)O1)C34O)O2 (centres undefined) ?
Response line: 13.6 min

Prompt line: So what does the record say about LC retention time for `CCC(C)(CC)c1cc(NC(=O)c2c(OC)cccc2OC)on1` ?
Response line: 9.42 min

----------
procedure text: RP, Thermo Scientific Acclaim RSLC 120 C18, 100 × 2.1 mm, 2.2 µm, 30 °C, 0.2 mL/min, estimated dead time 1.1 min; A: 90% water + 10% methanol + 0.01% formic acid + 5 mM ammonium formate, pH 3.61; B: methanol + 0.01% formic acid + 5 mM ammonium formate, pH 3.61; gradient (min/%B) 0/1 1/1 2/39 13/99.9 15/99.9 15.1/1 20.1/1
settings: stereoisomer not certain
Give MET when the value for LC retention time is at least 8 min. Give NOT MET when it is less.

Solved cases (2 shown):
CN(C)c1ccc(C(c2ccccc2)c2ccc(N(C)C)cc2)cc1    MET
CCOP(=O)(OCC)OP(=O)(OCC)OCC    NOT MET

Prompt line: Quick check, LC retention time >= 8 min? `CC(C)(C)c1ccc(C(=O)CCCN2CCC(OC(c3ccccc3)c3ccccc3)CC2)cc1`
Response line: MET

Prompt line: Quick check, LC retention time >= 8 min? OC(CNCC(O)C1CCc2cc(F)ccc2O1)C1CCc2cc(F)ccc2O1 (centres undefined)
Response line: MET

Prompt line: Quick check, LC retention time >= 8 min? CCNP(=S)(OC)OC(C)=CC(=O)OC(C)C (centres undefined)
Response line: MET

Prompt line: Quick check, LC retention time >= 8 min? CC=C1CC(C)C(C)(O)C(=O)OCC2=CCN3CCC(OC1=O)C23 (centres undefined)
Response line: NOT MET

Prompt line: Quick check, LC retention time >= 8 min? CC(CCc1ccc(O)cc1)NCCc1ccc(O)c(O)c1 (centres undefined)
Response line: NOT MET

Prompt line: Quick check, LC retention time >= 8 min? CNC(=O)ON=C(C)C(C)SC (centres undefined)
Response line: NOT MET

Prompt line: Quick check, LC retention time >= 8 min? `CCOCn1c(-c2ccc(Cl)cc2)c(C#N)c(Br)c1C(F)(F)F`
Response line: MET

Prompt line: Quick check, LC retention time >= 8 min? `O=C(O)Cn1c(=O)sc2cccc(Cl)c21`
Response line: NOT MET
